Origin of values: patent US20250136677A1

Exercise: for every item that follows, state its recorded % Inhibition Relative to Parent (pSTAT, FCWF-4 cells).
# Measurement Target: T1, wildtype feline IL-31 protein (Feline_IL31_wildtype) (feline); also: test concentration or dose not given here
# T1 chain: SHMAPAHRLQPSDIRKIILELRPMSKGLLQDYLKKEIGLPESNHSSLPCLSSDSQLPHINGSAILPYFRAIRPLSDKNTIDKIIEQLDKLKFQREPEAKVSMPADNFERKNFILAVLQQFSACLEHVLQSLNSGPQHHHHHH
# Assay Info: cell-based or functional assay
Just the number please, in %, no unit attached.

Query :: Endpoint output: % Inhibition Relative to Parent (pSTAT, FCWF-4 cells) of A23 (antibody, V domains shown) VH: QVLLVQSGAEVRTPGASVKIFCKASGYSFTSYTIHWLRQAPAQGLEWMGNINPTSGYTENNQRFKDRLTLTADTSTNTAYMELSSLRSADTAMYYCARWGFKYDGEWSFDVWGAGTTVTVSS VL: EIQMTQSPSSLSASPGDRVTITCRASQGISIWLSWYQQKPGNIPKVLINKASNLHIGVPSRFSGSGSGTDFTLTISSLEPEDAATYYCLQSATYPLTFGGGTKLEIK . Value?
Result :: 29.2

Query :: Endpoint output: % Inhibition Relative to Parent (pSTAT, FCWF-4 cells) of A07 (antibody, V domains shown) VH: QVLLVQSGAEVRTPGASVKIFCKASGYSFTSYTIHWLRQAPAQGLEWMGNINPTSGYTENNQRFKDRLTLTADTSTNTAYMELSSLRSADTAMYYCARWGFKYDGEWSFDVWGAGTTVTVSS VL: EIQMTQSPSSLSASPGDRVTITCRASAGISIWLSWYQQKPGNIPKVLINKASNLHIGVPSRFSGSGSGTDFTLTISSLEPEDAATYYCLQSQTYPLTFGGGTKLEIK . Value?
Result :: 93.6

Query :: Endpoint output: % Inhibition Relative to Parent (pSTAT, FCWF-4 cells) of A28 (antibody, V domains shown) VH: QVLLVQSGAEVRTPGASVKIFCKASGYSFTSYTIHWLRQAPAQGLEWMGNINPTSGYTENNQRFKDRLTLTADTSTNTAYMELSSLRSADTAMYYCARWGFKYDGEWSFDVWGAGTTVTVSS VL: EIQMTQSPSSLSASPGDRVTITCRASQGISIWLSWYQQKPGNIPKVLINKASNLHIGVPSRFSGSGSGTDFTLTISSLEPEDAATYYCLQSQTYPLAFGGGTKLEIK . Value?
Result :: 59.7
